# System: heme oxygenase-1 (HO-1)
# Protocol: High throughput screen: HO-1 promoter/enhancer luciferase reporter (pHOGL3/4.5+220) in stable HEK293 cells
# Assay type: cell-based
# Condition Info: Homo sapiens, Table 1, evaluation of biaryl aminomaleimides, HO-1 induction
pEC50: −log10 of the molar value.
Observation Type: pEC50

[in] Need pEC50, item `O=C1C=C(Nc2ccc(O)c(C(F)(F)F)c2)C(=O)N1c1ccccc1`
[out] < 4.30

[in] Need pEC50, item `O=C1C=C(Nc2cc(Cl)c(Cl)cc2O)C(=O)N1c1ccccc1`
[out] < 4.30

[in] Need pEC50, item `O=C1C=C(Nc2cc(O)c(Cl)cc2Cl)C(=O)N1c1ccccc1`
[out] < 4.30

[in] Need pEC50, item `O=C1C=C(Nc2cc(F)c(O)c(F)c2)C(=O)N1c1ccc(-c2cscn2)cc1`
[out] 5.04

[in] Need pEC50, item `N#Cc1cccc(N2C(=O)C=C(Nc3cc(F)c(O)c(F)c3)C2=O)c1`
[out] < 4.30

[in] Need pEC50, item `O=C1C=C(Nc2cc(F)c(O)c(F)c2)C(=O)N1c1cccc(F)c1`
[out] 5.50

Next:
[in] Need pEC50, item `Nc1ccc(NC2=CC(=O)N(c3ccccc3)C2=O)cc1`
[out] < 4.30

[in] Need pEC50, item `O=C1C=C(Nc2cc(F)c(O)c(F)c2)C(=O)N1c1cc(F)c(F)c(F)c1`
[out] 4.77

[in] Need pEC50, item `O=C1C=C(Nc2cc(F)c(O)c(F)c2)C(=O)N1c1ccc(-c2ncco2)cc1`
[out] < 4.30

* * *

# Test system: heme oxygenase-1 (HO-1)
# Protocol: High throughput screen: HO-1 promoter/enhancer luciferase reporter (pHOGL3/4.5+220) in stable HEK293 cells
# Assay type: cell-based
# Condition Info: Homo sapiens, Table 1, evaluation of biaryl aminomaleimides, HO-1 induction
Observation Type: EC50 (µM)

Worked cases, EC50 given:
[in] Need EC50, item `O=C1C=C(Nc2cc(F)c(O)c(F)c2)C(=O)N1c1ccc(F)cc1`
[out] 4.21

[in] Need EC50, item `O=C1C=C(Nc2cc(F)c(O)c(F)c2)C(=O)N1c1cccc(C(F)(F)F)c1`
[out] 3.33

[A] O=C1C=C(Nc2cc(F)c(O)c(F)c2)C(=O)N1c1ccccc1
[B] COc1cc(N2C(=O)C=C(Nc3cc(F)c(O)c(F)c3)C2=O)cc(OC)c1OC
[in] Returns: the label, A or B , whose recorded EC50 is the lower number. Give the chosen item's label as your response.
[out] B
(B: 2.08 µM, A: 3.08 µM)

* * *

# Test system: heme oxygenase-1 (HO-1)
# Protocol: High throughput screen: HO-1 promoter/enhancer luciferase reporter (pHOGL3/4.5+220) in stable HEK293 cells
# Format: cell-based
# Condition Info: Homo sapiens, Table 1, evaluation of biaryl aminomaleimides, HO-1 induction
Observation Type: EC50 (µM)

[1] COc1cc(N2C(=O)C=C(Nc3cc(F)c(O)c(F)c3)C2=O)ccc1F [Compound 52]
[2] O=C1C=C(Nc2cc(F)c(O)c(F)c2)C(=O)N1c1ccc(C(F)(F)F)cc1 [Compound 39]
[3] COc1c(F)cc(N2C(=O)C=C(Nc3cc(F)c(O)c(F)c3)C2=O)cc1F [Compound 49]
[in] # ascending order, key=EC50 List the labels in the requested order.
[out] 2, 3, 1

[P] COc1ccc(N2C(=O)C=C(Nc3cc(F)c(O)c(F)c3)C2=O)cc1C#N [Compound 56]
[Q] COC(=O)c1cccc(N2C(=O)C=C(Nc3cc(F)c(O)c(F)c3)C2=O)c1 [Compound 65]
[in] Param pair: P , Q . Output: the one whose EC50 is numerically greater. Give the chosen item's label as your response.
[out] Q

* * *

# Tested on: heme oxygenase-1 (HO-1)
# Protocol: High throughput screen: HO-1 promoter/enhancer luciferase reporter (pHOGL3/4.5+220) in stable HEK293 cells
# Assay type: cell-based
# Condition Info: Homo sapiens, Table 1, evaluation of biaryl aminomaleimides, HO-1 induction
pEC50: −log10 of the molar value.
Observation Type: pEC50

Worked cases, pEC50 given:
[in] Reported pEC50 for heme oxygenase-1 (HO-1), given O=C1C=C(Nc2ccc(O)cc2)C(=O)N1c1cc(F)c(O)c(F)c1 [Compound 69] ?
[out] 4.78

[in] Reported pEC50 for heme oxygenase-1 (HO-1), given O=C1C=C(Nc2cc(Cl)c(O)c(Cl)c2)C(=O)N1c1ccccc1 [Compound 5] ?
[out] 4.50

[in] Reported pEC50 for heme oxygenase-1 (HO-1), given O=C1C=C(Nc2cc(F)c(O)c(F)c2)C(=O)N1c1ccc(-c2ccccc2)cc1 [Compound 62] ?
[out] 5.56

[P] O=C1C=C(Nc2ccc(O)c(Cl)c2F)C(=O)N1c1ccccc1 [Compound 9]
[Q] O=C1C=C(Nc2cc(F)c(O)c(F)c2)C(=O)N1c1ccc(N2CCOCC2)cc1 [Compound 60]
[R] COc1ccc(N2C(=O)C=C(Nc3cc(F)c(O)c(F)c3)C2=O)cc1 [Compound 30]
[in] Ordering criterion: pEC50; begin with the maximum. List the labels in the requested order.
[out] P, R, Q

* * *

# Tested on: heme oxygenase-1 (HO-1)
# Protocol: High throughput screen: HO-1 promoter/enhancer luciferase reporter (pHOGL3/4.5+220) in stable HEK293 cells
# Type: cell-based
# Condition Info: Homo sapiens, Table 1, evaluation of biaryl aminomaleimides, HO-1 induction
pEC50: −log10 of the molar value.
Observation Type: pEC50

[in] Need pEC50, item O=C1C=C(Nc2cc(F)c(O)c(F)c2)C(=O)N1Cc1ccccc1 [Compound 43]
[out] 5.99

[in] Need pEC50, item O=C1C=C(Nc2cc(F)c(O)c(F)c2)C(=O)N1c1ccc(Oc2ccccc2)cc1 [Compound 61]
[out] 5.42

[in] Need pEC50, item COc1ccc(N2C(=O)C=C(Nc3cc(F)c(O)c(F)c3)C2=O)cc1F [Compound 57]
[out] 5.25

[a] O=C1C=C(Nc2ccc(O)c(F)c2)C(=O)N1c1ccccc1 [Compound 3]
[b] COC(=O)c1ccc(N2C(=O)C=C(Nc3cc(F)c(O)c(F)c3)C2=O)cc1 [Compound 44]
[in] Returns: the label, a or b , whose recorded pEC50 is the lower number. Give the chosen item's label as your response.
[out] b

[I] O=C1C=C(Nc2cc(F)c(O)c(F)c2)C(=O)N1c1ccc(Cl)cc1 [Compound 29]
[II] CC(C)(C)c1ccc(N2C(=O)C=C(Nc3cc(F)c(O)c(F)c3)C2=O)cc1 [Compound 58]
[in] Returns: the label, I or II , whose recorded pEC50 is the lower number. Give the chosen item's label as your response.
[out] I

* * *

# System: heme oxygenase-1 (HO-1)
# Protocol: High throughput screen: HO-1 promoter/enhancer luciferase reporter (pHOGL3/4.5+220) in stable HEK293 cells
# Format: cell-based
# Condition Info: Homo sapiens, Table 1, evaluation of biaryl aminomaleimides, HO-1 induction
pEC50: −log10 of the molar value.
Observation Type: pEC50

[in] Need pEC50, item O=C1C=C(Nc2cc(F)c(O)c(F)c2)C(=O)N1CCc1ccccc1 [Compound 46]
[out] 6.37

[in] Need pEC50, item O=C1C=C(Nc2ccc(O)c(F)c2F)C(=O)N1c1ccccc1 [Compound 8]
[out] 5.26

[in] Need pEC50, item COc1ccccc1N1C(=O)C=C(Nc2cc(F)c(O)c(F)c2)C1=O [Compound 54]
[out] 4.70

[P] Cc1cc(NC2=CC(=O)N(c3ccccc3)C2=O)cc(C)c1O [Compound 12]
[Q] CN(C)c1ccc(N2C(=O)C=C(Nc3cc(F)c(O)c(F)c3)C2=O)cc1 [Compound 53]
[R] Cc1ccc(N2C(=O)C=C(Nc3cc(F)c(O)c(F)c3)C2=O)cc1C [Compound 37]
[S] O=C1C=C(Nc2cc(F)c(O)c(F)c2)C(=O)N1c1ccccc1F [Compound 48]
[T] CC(C)c1ccc(N2C(=O)C=C(Nc3cc(F)c(O)c(F)c3)C2=O)cc1 [Compound 36]
[in] Ordering criterion: pEC50; begin with the maximum. List the labels in the requested order.
[out] T, R, Q, P, S

* * *

# System: heme oxygenase-1 (HO-1)
# Protocol: High throughput screen: HO-1 promoter/enhancer luciferase reporter (pHOGL3/4.5+220) in stable HEK293 cells
# Format: cell-based
# Condition Info: Homo sapiens, Table 1, evaluation of biaryl aminomaleimides, HO-1 induction
pEC50: −log10 of the molar value.
Observation Type: pEC50

Worked cases, pEC50 given:
[in] Need pEC50, item O=C1C=C(Nc2cc(F)c(O)c(F)c2)C(=O)N1C1CC1 [Compound 68]
[out] < 4.30

[in] Need pEC50, item O=C1C=C(N2CCN(c3ccc(O)cc3)CC2)C(=O)N1c1ccccc1 [Compound 22]
[out] < 4.30

Now take the following compound into account.
[in] Need pEC50, item O=C(O)c1ccc(NC2=CC(=O)N(c3ccccc3)C2=O)cc1 [Compound 24]
[out] < 4.30
